# Test system: HOP-62 NSCLC
# Assay details: NCI tumour cell line growth inhibition, 48 h; in the data active = GI50 below about 0.43 µM; inactive = the rest
Outcomes: class 1 (active), class 0 (inactive)

INSERT INTO measurements (structure_smiles_string, class_assignment) VALUES
  ('COc1ccc(-c2cnnn2-c2nonc2-n2cccc2)cc1', 'class 1'),
  ('CCCCCCCCCCNC(=O)CI', 'class 0'),
  ('COc1cc(/C=C\c2cc(OC)c(OC)c(OC)c2)cc(N/C=C\C(=O)c2c[nH]c3ccccc23)c1OC', 'class 0'),
  ('O=C(Nc1cc(Cl)ccc1O)c1ccc(Nc2ccnc(C(F)(F)F)c2)cc1', 'class 0'),
  ('N[C@H](CCC(=O)N[C@@H](Cc1c[nH]c2ccccc12)C(=O)O)C(=O)O', 'class 0'),
  ('Cc1cc(N/N=C/c2ccccn2)nc2ccccc12', 'class 1'),
  ('c1ccc2c(c1)[nH]c1c2cc[n+]2cc3c(cc12)CCCC3', 'class 0'),
  ('O=C1c2ccccc2-c2c1c1ccccc1c(=O)n2CCN1CCNCC1', 'class 0'),
  ('O=C1Nc2ccccc2/C1=C1\CCc2cc(O)ccc21', 'class 0'),
  ('O=C(O)c1cccc(COc2ccc([N+](=O)[O-])cc2Cl)c1', 'class 0'),
  ('Cc1cc(Nc2nc(-c3cn(-c4ccc(Cl)cc4)nn3)nc3ccccc23)n[nH]1', 'class 0');

---

# System: NCI/ADR-RES ovarian
# Assay details: NCI tumour cell line growth inhibition, 48 h
Attribute: TGI
Attribute measured: TGI (µM)

INSERT INTO assay_data (compound, target, attribute_measured, modifier_sign, quantitative_result) VALUES
  ('CCCCCCCCCCNC(=O)CI', 'NCI/ADR-RES ovarian', 'TGI', '=', 5.56),
  ('CC(C)(C)OC(=O)NCCC(N)=S', 'NCI/ADR-RES ovarian', 'TGI', '>', 100),
  ('O=c1[nH]cnc2c1ncn2[C@@H]1C[C@@H]1CO', 'NCI/ADR-RES ovarian', 'TGI', '>', 100),
  ('C[C@@H](Cl)[C@H]1CCCN(Cc2ccc(Br)cc2)C1', 'NCI/ADR-RES ovarian', 'TGI', '>', 12.5),
  ('Nc1ccccc1O.O.O=C(O)C1[O][Sb][O]C1C(=O)O (configuration not stated)', 'NCI/ADR-RES ovarian', 'TGI', '>', 87.2),
  ('Clc1ccc(CSCCc2ccncc2)cc1Cl', 'NCI/ADR-RES ovarian', 'TGI', '=', 50.5),
  ('Cc1cc(N/N=C/c2ccccn2)nc2ccccc12', 'NCI/ADR-RES ovarian', 'TGI', '=', 21.7);

---

# Tested on: ACHN renal
# Assay details: NCI tumour cell line growth inhibition, 48 h
Output Met for TGI not less than 50 µM; output Not met otherwise.

INSERT INTO results (molecule, class_assignment) VALUES
  ('N[C@H](CCC(=O)N[C@@H](Cc1c[nH]c2ccccc12)C(=O)O)C(=O)O', 'Met'),
  ('O=C1c2ccccc2-c2c1c1ccccc1c(=O)n2CCN1CCNCC1', 'Not met'),
  ('NCCCN1CCN(CCCNc2ccc3nnn4c5ccccc5c(=O)c2c34)CC1', 'Met'),
  ('N#CC(N=Nc1ccc(Cl)cc1)c1nc2ccccc2o1 (stereo not given)', 'Met'),
  ('Cc1cc2c([N+](=O)[O-])cc3c(c2o1)C(=O)C=CC3=O', 'Not met'),
  ('CCOC(=O)C(Cl)(Cl)/S(=N\S(=O)(=O)c1ccccc1)NC(=O)c1ccccc1 (stereo not given)', 'Met'),
  ('CCc1c[n+]([O-])c(C)cc1[N+](=O)[O-]', 'Not met'),
  ('COc1ccc(-c2oc(/C=N/NC(N)=S)c([N+](=O)[O-])c2-c2ccc(OC)c(OC)c2)cc1OC', 'Met'),
  ('CC1CN=C(N(C(=O)Nc2ccc(F)c(Cl)c2)c2ccccc2)S1 (stereo not given)', 'Met');

---

As shown below, each of these compounds has a reported GI50 value.
# System: TK-10 renal
# Assay details: NCI tumour cell line growth inhibition, 48 h
Attribute measured: GI50

INSERT INTO results (structure_smiles_string, attribute_measured, result) VALUES
  ('O=C(O)c1cccc(COc2ccc([N+](=O)[O-])cc2Cl)c1', 'GI50', '27200 nM'),
  ('COc1cc(/C=C\c2cc(OC)c(OC)c(OC)c2)cc(N/C=C\C(=O)c2c[nH]c3ccccc23)c1OC', 'GI50', '1860 nM'),
  ('CC(C)c1[nH]nc2c1N=C(c1ccccc1Cl)c1cc([N+](=O)[O-])ccc1N2', 'GI50', '7310 nM'),
  ('Cc1ccc(OCCOCCOCCOCCOc2ccc(C)n(O)c2=S)c(=S)n1O', 'GI50', '527 nM'),
  ('O=C(Nc1cc(Cl)ccc1O)c1ccc(Nc2ccnc(C(F)(F)F)c2)cc1', 'GI50', '2000 nM');

---

# Test system: COLO 205 colon
# Assay details: NCI tumour cell line growth inhibition, 48 h; in the data active means GI50 below about 0.43 µM; inactive means the rest
Labels: active, inactive

INSERT INTO assay_data (structure_smiles_string, class_assignment) VALUES
  ('Cc1cc(N/N=C/c2ccccn2)nc2ccccc12', 'active'),
  ('Cc1ccc(OCCOCCOCCOCCOc2ccc(C)n(O)c2=S)c(=S)n1O', 'active'),
  ('CC(C)[C@H](O)C(=O)N[C@@H](C)C(=O)N[C@@H]1C(=O)N(C)CCc2ccccc21', 'inactive'),
  ('COc1cc2c(Nc3cc(Cl)c(OC)c(Cl)c3)c(C#N)cnc2cc1OCCCN1CCN(C)CC1', 'inactive'),
  ('O=C(Nc1cc(Nc2ncccc2-c2ncnc3nc[nH]c23)ccc1F)c1cc(C(F)(F)F)cc(C(F)(F)F)c1', 'active');

---

# Tested on: HCC-2998 colon
# Assay details: NCI tumour cell line growth inhibition, 48 h
// values below are reported TGI
Attribute measured: TGI (µM)

INSERT INTO assay_data (structure_smiles_string, target, attribute_measured, modifier_sign, quantitative_result) VALUES
  ('Cc1cc(Nc2nc(-c3cn(-c4ccc(Cl)cc4)nn3)nc3ccccc23)n[nH]1', 'HCC-2998 colon', 'TGI', '>', 50),
  ('COc1ccc(-c2c3c([nH]c(=S)c2C#N)CC(C)(C)CC3=O)cc1', 'HCC-2998 colon', 'TGI', '>', 100),
  ('C[C@@H]1S[C@H](c2ccccc2F)N2Cc3ccccc3N=C12', 'HCC-2998 colon', 'TGI', '=', 40.9),
  ('O=C(Nc1cc(Nc2ncccc2-c2ncnc3nc[nH]c23)ccc1F)c1cc(C(F)(F)F)cc(C(F)(F)F)c1', 'HCC-2998 colon', 'TGI', '=', 2.74),
  ('COC(=O)c1c2c(cc3c1CCC3)CCC2', 'HCC-2998 colon', 'TGI', '>', 100);

---

# Tested on: XF 498 CNS
# Assay details: NCI tumour cell line growth inhibition, 48 h
Attribute measured: TGI

INSERT INTO results (structure_smiles_string, attribute_measured, result) VALUES
  ('CCC1=CC2CN3Cn4c(c(COCc5c6n(c7ccccc57)CN5CC7C=C(CC)C5C6(C(=O)OC)C7)c5ccccc54)C(C(=O)OC)(C2)C13', 'TGI', '> 100 µM'),
  ('CN(C)C(=S)SSC(=S)N(C)C', 'TGI', '> 88.3 µM'),
  ('NC(=O)C(=O)CC(=O)c1ccccc1NC1=CC(=O)C(=O)c2ccccc21', 'TGI', '> 100 µM'),
  ('CN(C(=O)c1ccc([N+](=O)[O-])cc1)c1ccccc1', 'TGI', '> 100 µM');

---

TGI listing for selected compounds.
# Tested on: A549 NSCLC
# Assay details: NCI tumour cell line growth inhibition, 48 h
Attribute measured: TGI

INSERT INTO assay_data (compound, result) VALUES
  ('CCC(C)(O)c1cnc(CC(C)C)c(=O)n1O (configuration not stated)', '> 100 µM'),
  ('ClCCN(CCCl)c1ccc(CNc2ccccc2)cc1', '> 100 µM'),
  ('CC(C)(C)[Si](C)(C)OC1[C@@H](CNC(=O)NC(=O)CCl)O[C@@H](n2cnc3c(N)ncnc32)[C@H]1O[Si](C)(C)C(C)(C)C (some centres not stated)', '7.72 µM'),
  ('Cc1c(N2C(=O)C(Cl)C2c2ccc(Cl)cc2)c(=O)n(-c2ccccc2)n1C (configuration not stated)', '> 100 µM'),
  ('CCCC/C(=C\C1=C(C)C(=O)C(OC)=C(OC)C1=O)C(=O)O', '> 100 µM'),
  ('CC[n+]1[b-](C(C)(C)C)n(/N=C/C(C)(C)C)[b-](C(C)(C)C)[n+]1CC', '> 100 µM'),
  ('COc1cc2c(/C=N\N=C(N)N)c[nH]c2cc1C', '> 100 µM'),
  ('Cc1cc2c([N+](=O)[O-])cc3c(c2o1)C(=O)C=CC3=O', '37.2 µM'),
  ('CCN1CCCC(NCc2c3ccccc3c(CNC3CCCN(CC)C3)c3ccccc23)C1 (configuration not stated)', '> 100 µM'),
  ('c1csc(-c2ccc(-c3cccs3)c3nsnc23)c1', '> 100 µM'),
  ('CCCCNC(=S)N/N=C/c1cccc(C)n1', '> 100 µM'),
  ('CC(C)=C1CCC(CN(C)C)C1=O (configuration not stated)', '> 100 µM'),
  ('COc1ccc(-c2nccn2-c2ccc(OC)cc2)cc1', '> 80.5 µM'),
  ('COC(=O)CCc1cc(OC)c2c(c1)[C@H](C(=O)OC)[C@@H](c1ccc(O)c(OC)c1)O2', '> 100 µM'),
  ('O=C(/C(=C\c1c(-c2ccccc2)[nH]c2ccccc12)S(=O)(=O)c1ccccc1)c1ccccc1', '> 100 µM'),
  ('C/C1=C\CC[C@@]2(C)O[C@@H]2C[C@@H](C2(C)CO2)CC/C(C)=C/CC1 (some centres not stated)', '36.5 µM'),
  ('O=C(O)c1cccc(COc2ccc([N+](=O)[O-])cc2Cl)c1', '> 100 µM'),
  ('COc1ccc(CC2c3c(cc(OC)c(OC)c3OC)CCN2C)cc1OC (configuration not stated)', '> 100 µM'),
  ('NNC1=N/C(=C\c2ccco2)C(Cl)=N1', '> 100 µM'),
  ('COc1ccc(-c2cnnn2-c2nonc2-n2cccc2)cc1', '> 44.8 µM'),
  ('COc1cc(/C=C\c2cc(OC)c(OC)c(OC)c2)cc(N/C=C\C(=O)c2c[nH]c3ccccc23)c1OC', '34.8 µM'),
  ('CN(C(=O)c1ccc([N+](=O)[O-])cc1)c1ccccc1', '> 100 µM');
